target: LNX1_2, Q8TBB1; test: holdup assay; set-up: key: below the threshold = too weak to quantify, mostly under pKd 3.1 to 4; settings: plain residues with an end cap or a label only (N-terminal biotin on a linker: ado-ado)
Sequence (Q8TBB1 371-470): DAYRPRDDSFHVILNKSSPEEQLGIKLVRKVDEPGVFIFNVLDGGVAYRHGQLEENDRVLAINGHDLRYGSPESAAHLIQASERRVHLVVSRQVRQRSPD
measurement.kind: pKd

>>> df
                         binder  measurement_kind  experimental_result
0     DFKHTKSFII [JAM2, P57087]               pKd  below the threshold
1  GTMFLRETSL [GUCY1A2, P33402]               pKd  below the threshold
2     SGDGKTSVWI [GJC1, P36383]               pKd                 4.03
3    TKDKVQETQI [LRRC4, Q9HBW1]               pKd  below the threshold
4    ELKAEDEVQI [DCHS2, Q6V1P9]               pKd  below the threshold
5   QKASRNESTF [POLR1D, P0DPB6]               pKd  below the threshold
6     EFKQTSSFLV [JAM1, Q9Y624]               pKd                 4.26
7  SAGADSETHC [SLCO1B1, Q9Y6L6]               pKd  below the threshold

This collection of values is drawn from paper PMC9482650.
